MEASURED_ON: T1, recombinant human VEGF165 (human, UniProt P15692 207-395)
T1 construct: also called hVEGF165
ASSAY: SPR (Biacore), antibody captured by anti-human Fc, hVEGF165 in solution
In this section we review reported pKd values for a set of binders.
Please treat pKd as minus the base-10 logarithm of the molar concentration.

Past entries and their recorded results:
CL-34570-IgG (antibody, V domains shown, also called h4G8 CL-34570) VH: EVQLVQSGSELKKPGASVKVSCKASGYTFDDYGMYWVRQAPGQGLEWMGWIDTETGTPTYADDFKGRFVFSLDTSVSTAYLQISSLKAEDTAVYYCARTNYYYSSYMFYFDYWGQGTMVTVSS VL: EIVLTQSPATLSLSPGERATLSCRASQSVSTHMHWYQQKPGQAPRLLIYGASNLESGIPARFSGSGSGTDFTLTISSLEPEDFAVYYCQQSWYDPLTFGQGTKLEIK :: 12.54
CL-34449-IgG (antibody, V domains shown, also called h4G8 CL-34449) VH: EVQLVQSGSELKKPGASVKVSCKASGYTFTDYGMYWVRQAPGQGLEWMGWIDTETGEPTYADDFKGRFVFSLDTSVSTAYLQISSLKAEDTAVYYCARTNYYYRSYMFYFDYWGQGTMVTVSS VL: EIVLTQSPATLSLSPGERATLSCRASQSVGTHMHWYQQKPGQAPRLLIYGASHLESGIPARFSGSGSGTDFTLTISSLEPEDFAVYYCQQTWYDPLTFGQGTKLEIK :: 12.07
CL-34475-IgG (antibody, V domains shown, also called h4G8 CL-34475) VH: EVQLVQSGSELKKPGASVKVSCKASGYTFTDYGMYWVRQAPGQGLEWMGWIDTETGEPTYADDFKGRFVFSLDTSVSTAYLQISSLKAEDTAVYYCARTNYYYSSYMFYFDYWGQGTMVTVSS VL: EIVLTQSPATLSLSPGERATLSCRASQSVSTHMHWYQQKPGQAPRLLIYGASNLESGIPARFSGSGSGTDFTLTISSLEPEDFAVYYCQQSWYDPLTFGQGTKLEIK :: 12.28
CL-34540-IgG (antibody, V domains shown, also called h4G8 CL-34540) VH: EVQLVQSGSELKKPGASVKVSCKASGYTFTDYGMYWVRQAPGQGLEWMGWIDTETGQPTYADDFKGRFVFSLDTSVSTAYLQISSLKAEDTAVYYCARTNYYYRSYMFYFDYWGQGTMVTVSS VL: EIVLTQSPATLSLSPGERATLSCRASESVGKHMHWYQQKPGQAPRLLIYAASNLESGVPARFSGSGSGTDFTLTISSLEPEDFAVYYCQQSWYDPLTFGQGTKLEIK :: 12.07
CL-28815-IgG (EI version of parent mAb) (antibody, V domains shown, IgG format) VH: EVQLVQSGSELKKPGASVKVSCKASGYTFTNYGMYWVRQAPGQGLEWMGWINTETGKPTYADDFKGRFVFSLDTSVSTAYLQISSLKAEDTAVYYCARTNYYYRSYIFYFDYWGQGTMVTVSS VL: EIVLTQSPATLSLSPGERATLSCRASESVSTHMHWYQQKPGQAPRLLIYGASNLESGVPARFSGSGSGTDFTLTISSLEPEDFAVYFCQQSWNDPFTFGQGTKLEIK :: 10.92

Name the reported pKd value associated with the binder CL-34633-IgG (antibody, V domains shown, also called h4G8 CL-34633) VH: EVQLVQSGSELKKPGASVKVSCKASGYTFSDYGMYWVRQAPGQGLEWMGWIDTETGEPTYADDFKGRFVFSLDTSVSTAYLQISSLKAEDTAVYYCARTNYYYRSYMFYFDYWGQGTMVTVSS VL: EIVLTQSPATLSLSPGERATLSCRASQSVSTHMHWYQQKPGQAPRLLIYGASNLESGVPARFSGSGSGTDFTLTISSLEPEDFAVYFCQQSWYDPLTFGQGTKLEIK
12.62

Can you share its pKd? I mean this binder: CL-34522-IgG (antibody, V domains shown, also called h4G8 CL-34522) VH: EVQLVQSGSELKKPGASVKVSCKASGYTFENYGMYWVRQAPGQGLEWMGWIDTETGEPTYADDFKGRFVFSLDTSVSTAYLQISSLKAEDTAVYYCARTNYYYSSYMFYFDYWGQGTMVTVSS VL: EIVLTQSPATLSLSPGERATLSCRASQSVGTHMHWYQQKPGQAPRLLIYGASKLESGVPARFSGSGSGTDFTLTISSLEPEDFAVYYCQQSWYDPLTFGQGTKLEIK
12.28
